Attribution: ChEMBL document CHEMBL5137040

# System: BaF3
# ASSAY REMARKS: Cytotoxicity against mouse BaF3 cells harboring crizotinib resistant NPM/ALK C1156Y mutant assessed as inhibition of cell proliferation incubated for 72 hrs by MTS assay
# Type: functional, cell-based
# STUDY CONDITIONS: BaF3, 72 h
MEASURE NAME: pIC50
Note on pIC50: it is the negative log10 of concentration, concentration in mol/L.

Exam item: Consider the molecule "CN1CCN(c2ccc(-c3ccc4[nH]c5nccc(-c6ccc(Cc7ccccc7)cc6)c5c4c3)cc2)CC1" and give its measured pIC50.
Marked response: 5.89

* * *

Assignment: determine reported IC50 for the given compounds.

Exam item: // lookup IC50 | system=ALK tyrosine kinase receptor (Homo sapiens, UniProt Q9UM73) | key= "COC(=O)c1cc(-c2ccnc3[nH]c4ccc(-c5ccc(N6CCN(C)CC6)cc5)cc4c23)ccc1Cc1ccccc1"
Marked response: > 10 µM

Exam item: Find IC50 (ALK tyrosine kinase receptor (Homo sapiens, UniProt Q9UM73)) for the entry "CCN(CC)CCSCC(=O)c1ccc2[nH]c3nccc(Cl)c3c2c1"
Marked response: > 10 µM

Exam item: Notebook: pull reported IC50 for ALK tyrosine kinase receptor (Homo sapiens, UniProt Q9UM73), entry "COc1ccc(-c2ccnc3[nH]c4ccccc4c23)cc1"
Marked response: > 10 µM

Exam item: Look up IC50 with ALK tyrosine kinase receptor (Homo sapiens, UniProt Q9UM73) for this compound: "O=[N+]([O-])c1ccccc1Nc1ccnc2[nH]c3ccccc3c12"
Sequence (Q9UM73 whole entry): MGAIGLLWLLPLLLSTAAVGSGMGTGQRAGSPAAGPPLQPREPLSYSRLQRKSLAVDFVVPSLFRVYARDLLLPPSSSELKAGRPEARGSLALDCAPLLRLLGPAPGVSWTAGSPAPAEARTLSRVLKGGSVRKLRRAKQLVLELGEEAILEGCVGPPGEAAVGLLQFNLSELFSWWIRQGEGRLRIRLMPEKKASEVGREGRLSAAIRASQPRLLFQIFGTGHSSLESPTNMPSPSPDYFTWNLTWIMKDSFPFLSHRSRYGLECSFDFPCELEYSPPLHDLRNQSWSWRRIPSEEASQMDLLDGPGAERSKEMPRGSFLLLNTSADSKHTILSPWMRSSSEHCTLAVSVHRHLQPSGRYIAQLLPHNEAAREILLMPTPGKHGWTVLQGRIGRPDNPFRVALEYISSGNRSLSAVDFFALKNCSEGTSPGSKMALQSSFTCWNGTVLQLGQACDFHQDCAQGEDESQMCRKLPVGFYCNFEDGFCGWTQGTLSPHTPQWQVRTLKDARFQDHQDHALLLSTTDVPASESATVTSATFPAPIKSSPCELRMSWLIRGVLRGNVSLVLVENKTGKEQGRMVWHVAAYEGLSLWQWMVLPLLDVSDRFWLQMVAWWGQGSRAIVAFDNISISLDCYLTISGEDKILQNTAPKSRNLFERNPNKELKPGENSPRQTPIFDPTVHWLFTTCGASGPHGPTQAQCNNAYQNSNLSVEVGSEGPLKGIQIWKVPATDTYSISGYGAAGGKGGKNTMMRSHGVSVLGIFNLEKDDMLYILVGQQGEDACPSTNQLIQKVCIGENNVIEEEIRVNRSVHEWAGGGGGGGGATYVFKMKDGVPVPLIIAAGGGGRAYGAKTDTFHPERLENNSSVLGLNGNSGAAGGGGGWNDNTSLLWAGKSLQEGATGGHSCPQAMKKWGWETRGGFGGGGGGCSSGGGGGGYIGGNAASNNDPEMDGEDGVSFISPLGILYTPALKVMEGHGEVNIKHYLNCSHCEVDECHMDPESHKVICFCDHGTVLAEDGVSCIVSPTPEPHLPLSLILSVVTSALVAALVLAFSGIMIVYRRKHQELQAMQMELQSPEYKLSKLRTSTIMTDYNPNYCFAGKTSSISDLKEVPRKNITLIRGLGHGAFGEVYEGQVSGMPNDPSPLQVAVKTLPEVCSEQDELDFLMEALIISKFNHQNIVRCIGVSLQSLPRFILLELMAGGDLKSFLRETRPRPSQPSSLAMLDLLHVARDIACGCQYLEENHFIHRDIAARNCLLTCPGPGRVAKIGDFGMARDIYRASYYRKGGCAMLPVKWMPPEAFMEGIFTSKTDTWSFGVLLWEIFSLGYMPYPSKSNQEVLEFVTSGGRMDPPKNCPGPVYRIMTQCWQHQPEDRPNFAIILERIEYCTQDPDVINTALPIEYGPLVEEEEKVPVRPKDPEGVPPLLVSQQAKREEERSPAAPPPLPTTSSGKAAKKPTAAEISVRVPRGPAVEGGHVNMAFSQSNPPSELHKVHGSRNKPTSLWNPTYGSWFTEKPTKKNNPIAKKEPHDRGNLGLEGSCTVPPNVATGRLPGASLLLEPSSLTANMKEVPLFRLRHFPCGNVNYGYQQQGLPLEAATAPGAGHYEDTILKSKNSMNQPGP
Marked response: > 10 µM

Exam item: Missing value: IC50, ALK tyrosine kinase receptor (Homo sapiens, UniProt Q9UM73), entry "CN(C)/C=C/C(=O)c1ccc2[nH]c3nccc(-c4ccc(Cc5ccccc5)cc4)c3c2c1" . Fill in?
Marked response: > 10 µM

Exam item: IC50 of COc1cc(C(O)c2ccccc2)c(O)cc1-c1ccnc2[nH]c3ccc(-c4ccc(N5CCN(C)CC5)cc4)cc3c12 (stereo not drawn) on ALK tyrosine kinase receptor (Homo sapiens, UniProt Q9UM73)?
Marked response: > 10 µM

Exam item: Record lookup: for ALK tyrosine kinase receptor (Homo sapiens, UniProt Q9UM73), what IC50 belongs to "C#Cc1ccnc2[nH]c3ccc(-c4ccc(N5CCN(C)CC5)cc4)cc3c12" ?
Marked response: > 10 µM

Exam item: Give ALK tyrosine kinase receptor (Homo sapiens, UniProt Q9UM73) IC50 for "c1ccc(Cc2ccc(-c3ccnc4[nH]c5ccc(-c6ccc(N7CCN(Cc8cccnc8)CC7)cc6)cc5c34)cc2)cc1"
Marked response: > 10 µM

* * *

# ASSAY REMARKS: Half-life in po dosed nude mouse
# Assay type: ADME, organism-based
# STUDY CONDITIONS: in vivo
MEASURE NAME: half-life

Exam item: Need half-life, item "CN1CCN(c2ccc(-c3ccc4[nH]c5nccc(-c6ccc(Cc7ccccc7)cc6)c5c4c3)cc2)CC1"
Marked response: < 24 h
